# Tested on: Cryptococcus neoformans
# procedureText: Antifungal activity against Cryptococcus neoformans Cr-1 strain
# Assay type: functional
Threshold 3 µg/mL. MIC below it: 1. MIC at it or above: -1.

CCc1nnnn1CC(I)=C(I)I | -1
Cc1ccnn1CC#CI | 1
CC(C)c1nnn(CC#CI)n1 | -1
O=[N+]([O-])c1ncnn1CC#CI | 1
IC#CCn1ncnn1 | 1
Cc1nnnn1CC#CI | -1
Clc1ccccc1C(c1ccccc1)(c1ccccc1)n1ccnc1 | 1
O=[N+]([O-])c1cccn1CC(I)=C(I)I | -1
CCCCCc1nnnn1CC(I)=C(I)I | -1
COC(=O)c1cccn1CC#CI | -1
Cc1cncn1CC(I)=C(I)I | -1
O=[N+]([O-])c1ccc(-c2nnn(CC(I)=C(I)I)n2)cc1 | -1
O=[N+]([O-])c1ncnn1CC(I)=C(I)I | 1
O=C(c1ccccc1)c1cccn1CC(I)=C(I)I | -1
CC(C)c1nnnn1CC#CI | -1
CCc1nnn(CC(I)=C(I)I)n1 | 1
COc1ccc(-c2nnnn2CC#CI)cc1 | -1
CC(=O)c1cccn1CC(I)=C(I)I | -1
CCCCCCCc1nnn(CC#CI)n1 | -1
Cc1nccn1CC(I)=C(I)I | -1
Cc1nnn(CC#CI)n1 | 1
O=[N+]([O-])c1ccn(CC#CI)c1 | 1
CCCCCCCc1nnnn1CC(I)=C(I)I | -1
COc1ccc(-c2nnn(CC#CI)n2)cc1 | -1
Clc1cc(Cl)cc(-c2nnn(CC#CI)n2)c1 | 1
CCOC(=O)c1cn(CC(I)=C(I)I)c(Cl)c1Cl | -1
IC(I)=C(I)Cn1ccnn1 | -1
IC#CCn1nnnc1Cc1ccccc1 | -1
CC(C)Cc1nnnn1CC#CI | -1
O=[N+]([O-])c1cccn1CC#CI | 1
O=[N+]([O-])c1cn(CC#CI)c(Cl)c1Cl | 1

====

# System: Cryptococcus neoformans
# procedureText: Antifungal activity against Cryptococcus neoformans Cr-1 strain
# Type: functional
Threshold check on MIC: strictly below 10 µg/mL is T; on or above 10 µg/mL is F.

COc1ccc(-c2nnn(CC(I)=C(I)I)n2)cc1 | F
IC(I)=C(I)Cn1cncn1 | T
CCOCCc1nnn(CC(I)=C(I)I)n1 | T
O=C(O)c1ccc(-c2nnn(CC#CI)n2)cc1 | F
O=[N+]([O-])c1c[nH]c(Cl)c1Cl | F
Oc1ccc(-c2nnn(CC#CI)n2)cc1 | F
CN(C)c1ccc(-c2nnn(CC#CI)n2)cc1 | F
CC(C)(C)c1nnn(CC#CI)n1 | F
COc1ccc(Cl)cc1C(=O)c1cccn1CC(I)=C(I)I | F
IC#CCn1nnc(-c2ccccc2)n1 | T
COc1ccc(-c2nnnn2CC(I)=C(I)I)cc1 | T
IC(I)=C(I)Cn1nccn1 | T
COC(=O)c1cc([N+](=O)[O-])cn1CC(I)=C(I)I | T
Clc1cccc(-c2nnn(CC#CI)n2)c1 | T

====

# Test system: Trichophyton benhamiae
# procedureText: Antifungal activity towards Trichophyton mentagrophytes 530324 strain
# Type: functional, Arthroderma benhamiae
readoutType: log10 MIC (log10 of the value in µg/mL)

Clc1cccc(-c2nnn(CC#CI)n2)c1 | -1.00
Cc1nnn(CC#CI)n1 | -0.11
CCCCCc1nnn(CC(I)=C(I)I)n1 | -1.00
CC(C)Cc1nnn(CC#CI)n1 | -0.41
IC(I)=C(I)Cn1ccnc1 | 0.19
Oc1ccc(-c2nnn(CC#CI)n2)cc1 | -0.70
Clc1cc(Cl)c(OCC#CI)cc1Cl | -0.41
Fc1ccc(-c2nnn(CC(I)=C(I)I)n2)cc1 | -1.00
Cc1nnnn1CC#CI | 0.50
IC(I)=C(I)Cn1ccnn1 | -0.41
CC(C)c1nnn(CC(I)=C(I)I)n1 | -0.11
Clc1cc(Cl)cc(-c2nnn(CC#CI)n2)c1 | -1.00
IC#CCn1ccnc1 | 0.80
IC#CCn1nccn1 | -0.41
IC(I)=C(I)Cn1cnnn1 | -0.41
